Data provenance: ChEMBL document CHEMBL1124861

- system: Renin (Homo sapiens, UniProt P00797)
- Sequence (P00797 whole entry): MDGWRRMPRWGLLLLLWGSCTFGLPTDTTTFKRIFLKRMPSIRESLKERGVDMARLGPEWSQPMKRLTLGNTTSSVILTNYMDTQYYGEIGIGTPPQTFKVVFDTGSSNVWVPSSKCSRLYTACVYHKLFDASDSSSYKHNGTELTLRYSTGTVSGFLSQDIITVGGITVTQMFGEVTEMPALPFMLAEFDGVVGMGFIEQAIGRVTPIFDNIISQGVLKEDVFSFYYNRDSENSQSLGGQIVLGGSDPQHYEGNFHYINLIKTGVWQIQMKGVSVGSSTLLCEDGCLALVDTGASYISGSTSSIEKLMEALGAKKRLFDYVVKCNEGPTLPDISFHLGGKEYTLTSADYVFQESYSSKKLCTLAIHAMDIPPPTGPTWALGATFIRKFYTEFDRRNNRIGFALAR
- assay method text: Dissociation constant (Kd) of renin inhibitor was determined over a temperature range of 8-37 degree by the fluorescence displacement assay
pKd: −log10 of the molar value. *1 amine or outer side, *2 acyl side, *3 side chain or, on linkers, in order; H or OH if unused. Where a SMILES comes first, the peptide text is derived from it. [ ]: non-standard residue; d: D form. The star is where a group is joined. ξ: configuration not given here. Sta(3ξ) = CC(C)C[C@H](N[*:1])C(O)CC(=O)[*:2]; Isovaleryl = CC(C)CC(=O)*
property: pKd

CC[C@H](C)[C@H](NC(=O)[C@@H](C[C@H](O)[C@H](CC(C)C)NC(=O)[C@H](Cc1cnc[nH]1)NC(=O)[C@H](Cc1ccccc1)NC(=O)[C@@H]1CCCN1C(C)=O)C(C)C)C(N)=O : 8.27
CC[C@H](C)[C@H](NC(=O)CC(O)[C@H](CC(C)C)NC(=O)[C@H](Cc1c[nH]cn1)NC(=O)[C@H](Cc1ccccc1)NC(=O)[C@@H]1CCCN1C(=O)[C@H](Cc1c[nH]cn1)NC(=O)CC(C)C)C(=O)N[C@@H](Cc1ccccc1)C(N)=O (some centres undefined) (Isovaleryl-HPFH[Sta(3ξ)]IF-NH2) : 8.77

a: CCC(C)CNC(=O)[C@H](Cc1ccccc1)NC[C@H](Cc1ccccc1)NC(=O)[C@H](Cc1cnc[nH]1)NC(=O)[C@H](Cc1ccccc1)NC(=O)[C@@H]1CCCN1C(C)=O (some centres undefined)
b: CC[C@H](C)[C@H](NC(=O)[C@@H](C[C@H](O)[C@H](CC(C)C)NC(=O)[C@H](Cc1c[nH]cn1)NS(=O)(=O)c1cccc2c(N(C)C)cccc12)C(C)C)C(=O)NCc1ccccn1
Exercise: Between a and b , which one shows the smaller pKd number? Could you answer with the label of the item you picked?
Solution: b
